- measured-target: HLA-A*01:01
- protocol-description: IEDB peptide-MHC binding, purified MHC/competitive/fluorescence; filed as Kd, often an IC50 or EC50 that approximates it; bounds were set here for any values at or beyond the usual limits of such assays
- condition-parameters: source organism: Influenza A virus (A/swine/Finistere/127/99(H3N2))
property-name: Kd (nM)
Numbers only, in nM.

Task item: For the sequence `MLASIDLKY` , what Kd is on record?
Reply: 427

###

- measured-target: HLA-A*03:01
- protocol-description: IEDB peptide-MHC binding, purified MHC/competitive/fluorescence; filed as Kd, often an IC50 or EC50 that approximates it; bounds were set here for any values at or beyond the usual limits of such assays
- condition-parameters: source organism: Salmonella enterica subsp. enterica serovar Typhi
property-name: Kd

Task item: Looking for the measured Kd of `ATTFARFLY` , can you help?
Reply: 202 nM

###

Give Kd for every item shown.
- measured-target: HLA-A*03:01
- protocol-description: IEDB peptide-MHC binding, purified MHC/direct/fluorescence; filed as Kd, often an IC50 or EC50 that approximates it; bounds were set here for any values at or beyond the usual limits of such assays
- condition-parameters: source organism: Zaire ebolavirus

These recorded examples may help you get a feel for the data.
>  <macromolecule-sequence>
ILNRKAIDF

>  <Kd>
≥ 20 µM

$$$$
>  <macromolecule-sequence>
LESLTDREL

>  <Kd>
≥ 20 µM

$$$$

Now consider a different sequence.
Task item: Param readout= Kd; system= HLA-A*03:01; entry= `SMHYKLDEV` ; returns value.
Reply: ≥ 20 µM

###

Exercise: state measured pKd for each of the sequences provided.
- measured-target: HLA-A*30:01
- protocol-description: IEDB peptide-MHC binding, purified MHC/competitive/radioactivity; filed as Kd, often an IC50 or EC50 that approximates it; bounds were set here for any values at or beyond the usual limits of such assays
- condition-parameters: source organism: Vaccinia virus WR
Give bare numbers, as −log10 of the molar value.

Consider the worked cases shown below.
>  <macromolecule-sequence>
MLMFIFTGI

>  <pKd>
6.55

$$$$
>  <macromolecule-sequence>
CSRCLSLFY

>  <pKd>
7.66

$$$$
>  <macromolecule-sequence>
HVFQEYRLK

>  <pKd>
7.58

$$$$

Give me pKd for each of these sequences, listed below.
1. KTIWEIPQK
2. KARCNHLTK
3. RAIASMIMY
4. GAKIIHRYA
5. RLHSNTILK
6. IVYSLVTTI
7. IKVLVEHGF

Reply:
7.93
9.67
7.15
6.93
7.31
7.80
5.23

For every item in the list below, what is its measured pKd?
1. HLRDQSIKI
2. HQYPANLFY
3. KFKLTLPNK
4. RSKNTIIIA
5. KVKNHIPNI

Reply:
7.82
7.29
7.92
9.79
9.16

###

- measured-target: HLA-B*27:05
- protocol-description: IEDB peptide-MHC binding, purified MHC/direct/fluorescence; filed as Kd, often an IC50 or EC50 that approximates it; bounds were set here for any values at or beyond the usual limits of such assays
- condition-parameters: source organism: Influenza A virus
pKd: −log10 of the molar value.
property-name: pKd

Task item: Request the reported pKd associated with `DWSGYSGSF`
Reply: ≤ 4.70

###

- measured-target: HLA-B*18:01
- protocol-description: IEDB peptide-MHC binding, purified MHC/direct/fluorescence; filed as Kd, often an IC50 or EC50 that approximates it; bounds were set here for any values at or beyond the usual limits of such assays
- condition-parameters: source organism: Vibrio cholerae O139
property-name: Kd

Task item: Give its Kd value. Item: `EKDSNHNVL`
Reply: ≥ 20 µM

###

- measured-target: HLA-A*30:02
- protocol-description: IEDB peptide-MHC binding, purified MHC/competitive/radioactivity; filed as Kd, often an IC50 or EC50 that approximates it; bounds were set here for any values at or beyond the usual limits of such assays
- condition-parameters: source organism: Mammarenavirus machupoense
Assignment: determine reported Kd for the given sequences.

>  <macromolecule-sequence>
WIEFTNFKV

>  <observed-measurement>
≥ 49.9 µM

$$$$
>  <macromolecule-sequence>
AESLVGFLFY

>  <observed-measurement>
0.45 µM

$$$$

Now for another entry.
Task item: Return reported Kd; argument: `AYSKSLKELV`
Reply: ≥ 26.7 µM

###

- measured-target: HLA-A*23:01
- protocol-description: IEDB peptide-MHC binding, purified MHC/competitive/radioactivity; filed as Kd, often an IC50 or EC50 that approximates it; bounds were set here for any values at or beyond the usual limits of such assays
- condition-parameters: source organism: Mammarenavirus lassaense
property-name: Kd

Task item: Find the measured Kd: item `ICGGTIDAY` , target or system HLA-A*23:01.
Reply: ≥ 77.7 µM

###

- measured-target: HLA-B*57:01
- protocol-description: IEDB peptide-MHC binding, purified MHC/competitive/fluorescence; filed as Kd, often an IC50 or EC50 that approximates it; bounds were set here for any values at or beyond the usual limits of such assays
- condition-parameters: source organism: Lechiguanas virus
Task for the reader: assign each of the following sequences its reported Kd.

>  <macromolecule-sequence>
KLKSVGKAY

>  <measured-target>
HLA-B*57:01

>  <Kd>
≥ 20 µM

$$$$

Next item in the queue.
Task item: Entry under review: `SCINGQCPY` . Reported Kd?
Reply: ≥ 20 µM

###

- measured-target: HLA-A*02:01
- protocol-description: IEDB peptide-MHC binding, purified MHC/direct/fluorescence; filed as Kd, often an IC50 or EC50 that approximates it; bounds were set here for any values at or beyond the usual limits of such assays
- condition-parameters: source organism: Vibrio cholerae O139
pKd: −log10 of the molar value.
property-name: pKd

Task item: Entry under review: `EKDSNHNVL` . Reported pKd?
Reply: ≤ 4.70

###

- measured-target: HLA-B*53:01
- protocol-description: IEDB peptide-MHC binding, purified MHC/competitive/radioactivity; filed as Kd, often an IC50 or EC50 that approximates it; bounds were set here for any values at or beyond the usual limits of such assays
- condition-parameters: source organism: Triticum aestivum
property-name: pKd
Numbers only, as −log10 of the molar value.

Task item: Please give the measured pKd for this sequence: `PPYCTIAPV`
Reply: 4.94

###

- measured-target: HLA-A*24:03
- protocol-description: IEDB peptide-MHC binding, purified MHC/direct/fluorescence; filed as Kd, often an IC50 or EC50 that approximates it; bounds were set here for any values at or beyond the usual limits of such assays
- condition-parameters: source organism: Salmonella enterica
property-name: Kd

Task item: What measured Kd goes with `HHQINYHGF` ?
Reply: 965 nM

###

- measured-target: HLA-A*26:01
- protocol-description: IEDB peptide-MHC binding, purified MHC/competitive/radioactivity; filed as Kd, often an IC50 or EC50 that approximates it; bounds were set here for any values at or beyond the usual limits of such assays
- condition-parameters: source organism: Lassa virus GA391
property-name: Kd

Task item: Request: Kd, test system HLA-A*26:01, entry `VFRTSTPKVV`
Reply: ≥ 69.7 µM

###

- measured-target: HLA-A*24:03
- protocol-description: IEDB peptide-MHC binding, purified MHC/competitive/fluorescence; filed as Kd, often an IC50 or EC50 that approximates it; bounds were set here for any values at or beyond the usual limits of such assays
- condition-parameters: source organism: Bacillus cereus ATCC 4342
pKd: −log10 of the molar value.
property-name: pKd

Task item: Need pKd, item `GLFWGGIWY`
Reply: ≤ 4.70

###

- measured-target: HLA-B*08:01
- protocol-description: IEDB peptide-MHC binding, purified MHC/competitive/radioactivity; filed as Kd, often an IC50 or EC50 that approximates it; bounds were set here for any values at or beyond the usual limits of such assays
- condition-parameters: source organism: Vaccinia virus Copenhagen
property-name: pKd
One number for each entry, as −log10 of the molar value.

Task item: What value of measured pKd is listed for `SIFLIFSII` ?
Reply: 6.07

###

- measured-target: HLA-A*25:01
- protocol-description: IEDB peptide-MHC binding, purified MHC/competitive/fluorescence; bounds were set here for any values at or beyond the usual limits of such assays
- condition-parameters: source organism: Ateles geoffroyi
pIC50: −log10 of the molar value.
property-name: pIC50

Task item: Requested read-out: pIC50. Entry: `LPADPASVL`
Reply: ≤ 4.70

###

- measured-target: HLA-C*15:02
- protocol-description: IEDB peptide-MHC binding, purified MHC/direct/fluorescence; filed as Kd, often an IC50 or EC50 that approximates it; bounds were set here for any values at or beyond the usual limits of such assays
- condition-parameters: source organism: Cryptosporidium parvum Iowa II
property-name: Kd

Task item: // map `SFLHWFHHL` to recorded Kd (system: HLA-C*15:02)
Reply: ≥ 20 µM
